As shown below, each of these compounds has a reported pIC50 value.
Assay system: KRAS-G12V/RAF1 (Homo sapiens (Human), UniProt P01116, G12V)
Sequence (P01116-2 other isoform, or with tags, fused parts or gaps G12V): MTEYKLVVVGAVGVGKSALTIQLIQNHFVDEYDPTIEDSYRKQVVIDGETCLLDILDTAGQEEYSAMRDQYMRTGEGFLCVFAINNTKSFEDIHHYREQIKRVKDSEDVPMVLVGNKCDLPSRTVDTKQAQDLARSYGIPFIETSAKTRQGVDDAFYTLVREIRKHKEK
Test: KRAS/RAF1 binding inhibition assay (AlphaScreen)
pIC50: −log10 of the molar value.

Answered cases to consult:
Compound	pIC50
CCc1cccc2cc(O)cc(-c3ncc4c(N(C)C5CC5)nc(OCC5(CN6CCC(CN7CCN(c8ccc9c(c8)CN([C@H]8CCC(=O)NC8=O)C9=O)CC7)CC6)CC5)nc4c3F)c12 [Compound 15]	< 6.70
CCc1c(F)ccc2cc(O)cc(-c3ncc4c(N5CCC[C@@](C)(O)C5)nc(OCC5(CN6CCC(C)(CN7CC8(CCN(c9ccc%10c(c9)CN([C@H]9CCC(=O)NC9=O)C%10=O)CC8)C7)CC6)CC5)nc4c3F)c12 [Compound 40]	> 7.70

Here's the next entry for you.
## Task What value of pIC50 has been reported for the following compound? CCc1cccc2cc(O)cc(-c3ncc4c(N5CCCn6nc(C(=O)N(C)C)c(Cl)c6C5)nc(OCC5(CN6CCC7(CC6)CC(CN6CCN(c8ccc9c(c8)CN([C@H]8CCC(=O)NC8=O)C9=O)CC6)C7)CC5)nc4c3F)c12 [Compound 102]
## Result < 6.70
